Assay: Rodent Feeding Model: Measurement of Food Intake in Food-Deprived Rats
Format: in vivo, Male Long-Evans rats
Conditions: 30 mg/kg i.p.; N = 8; 2-6 hrs
Excerpt: Male Long-Evans rats (180-200 grams) are housed individually and are maintained on a once-a-day feeding schedule (i.e. 10 a.m. until 4 p.m.) for five days following quarantine to allow the animals to acclimate to feeding on powdered chow (#5002 PMI Certified Rodent Meal) during the allotted time. The chow is made available in an open jar, anchored in the cage by a wire, with a metal follower covering the food to minimize spillage. Water is available ad-libitum. […]
Let's look at some compounds and their measured Food Consumption (grams) 2-6 hrs.
quantity_name: Food Consumption (grams) 2-6 hrs (g)

* O=S(=O)(NC[C@H]1CC[C@H](CNC2CCc3cc(F)ccc3C2Cc2cccnc2)CC1)c1ccccc1F (relative stereo) [Compound 111] | 7.50
* COc1ccc2c(c1)CCC(NC[C@H]1CC[C@H](CNS(=O)(=O)c3ccccc3F)CC1)C2Cc1cccnc1 (relative stereo) [Compound 43] | 8.63
* COc1ccc2c(c1)CC[C@H](NC[C@H]1CC[C@H](CNS(=O)(=O)c3ccc(OC)c(OC)c3)CC1)[C@@H]2Cc1ccccc1 (relative stereo) [Compound 53] | 6.13
* O=S(=O)(NC[C@H]1CC[C@H](CN[C@H]2CCc3cc(O)ccc3[C@H]2Cc2cccnc2)CC1)c1ccccc1F (relative stereo) [Compound 44] | 9.25

====

Target: human neuropeptide Y5 receptor (Homo sapiens, UniProt Q15761)
Construct: expressed in transfected cells
Sequence (Q15761 whole entry): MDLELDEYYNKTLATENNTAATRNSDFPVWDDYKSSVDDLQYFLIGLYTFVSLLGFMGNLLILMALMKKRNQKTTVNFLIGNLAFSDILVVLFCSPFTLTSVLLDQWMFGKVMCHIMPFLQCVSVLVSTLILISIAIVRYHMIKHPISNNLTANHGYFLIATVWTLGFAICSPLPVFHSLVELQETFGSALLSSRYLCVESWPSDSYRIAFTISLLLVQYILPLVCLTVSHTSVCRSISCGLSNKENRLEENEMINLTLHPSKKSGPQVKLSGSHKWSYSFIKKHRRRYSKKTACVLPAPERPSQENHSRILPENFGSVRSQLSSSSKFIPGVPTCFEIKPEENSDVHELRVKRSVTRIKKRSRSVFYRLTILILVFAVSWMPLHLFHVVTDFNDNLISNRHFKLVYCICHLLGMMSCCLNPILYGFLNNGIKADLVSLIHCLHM
Assay: NPY5 HTS Centrifugation Assay: competition with 125I-PYY for binding to NPY5-transfected HEK293 cell membranes
Settings: 80 pM 125I-PYY, 1 hr room temperature, read-out: % Inh @ 3 uM (% Inhibition of ^125 I-PYY Binding)
Decide by inhibition at 3 µM: equal to or exceeding 60% means yes (1), less means no (0).

* COc1ccc2c(c1)CC[C@H](NC[C@H]1CC[C@H](CNS(=O)(=O)c3cccs3)CC1)[C@@H]2Cc1ccccc1 (relative stereo) | yes (1)
* COc1ccc2c(c1)CCC(NC[C@H]1CC[C@H](CNS(=O)(=O)c3ccc(Cl)cc3Cl)CC1)C2Cc1ccccc1 (stereo partly drawn) | yes (1)
* O=S(=O)(NC[C@H]1CC[C@H](CNC2CCc3cc(F)ccc3C2Cc2ccccc2)CC1)c1ccccc1 (relative stereo) | yes (1)
* COc1ccc(CC2c3ccc(OC)cc3CCC2NC[C@H]2CC[C@H](CNS(=O)(=O)c3ccccc3)CC2)cc1 (stereo partly drawn) | no (0)
* COc1ccc2c(c1)CCC(NC[C@H]1CC[C@H](CNS(=O)(=O)c3ccccc3)CC1)C2Cc1ccc([N+](=O)[O-])cc1 (stereo partly drawn) | yes (1)

====

The following molecules are shown together with reported inhibition at 3 µM values.
Target: human neuropeptide Y5 receptor (Homo sapiens)
Construct: expressed in transfected cells
Assay: NPY5 HTS Centrifugation Assay: competition with 125I-PYY for binding to NPY5-transfected HEK293 cell membranes
Details: 80 pM 125I-PYY, 1 hr room temperature, read-out: % Inh @ 3 uM (% Inhibition of ^125 I-PYY Binding)
quantity_name: inhibition at 3 µM (%)

• COc1ccc2c(c1)CCC(NC[C@H]1CC[C@H](CNS(=O)(=O)c3ccc4ccccc4c3)CC1)C2Cc1cccc(C(F)(F)F)c1 (stereo partly shown) = 45
• COc1ccc2c(c1)CCC(NC[C@H]1CC[C@H](CNS(=O)(=O)c3ccccc3CN)CC1)C2Cc1ccccc1 (stereo partly shown) = 91
• COc1ccc2c(c1)CC[C@H](NC[C@H]1CC[C@H](CNS(=O)(=O)c3ccccc3)CC1)[C@@H]2Cc1ccccc1 (relative stereo) = 99
• O=S(=O)(NC[C@H]1CC[C@H](CN[C@H]2CCc3cc(O)ccc3[C@H]2Cc2cccnc2)CC1)c1ccccc1F (relative stereo) = 101
• COc1ccc2c(c1)CCC(NC[C@H]1CC[C@H](CNS(=O)(=O)c3cccc(Br)c3)CC1)C2Cc1ccccc1 (stereo partly shown) = 93
• O=S(=O)(NC[C@H]1CC[C@H](CN[C@H]2CCc3cc(F)ccc3[C@H]2Cc2ccccc2)CC1)c1ccccc1F (relative stereo) = 107
• COc1ccc2c(c1)CCC(NC[C@H]1CC[C@H](CNS(=O)(=O)c3ccccc3)CC1)C2Cc1ccccc1Cl (relative stereo) = 84
• O=S(=O)(NC[C@H]1CC[C@H](CNC2CCc3cc(F)ccc3C2Cc2ccccc2)CC1)c1ccccc1Br (relative stereo) = 105
• COc1ccc2c(c1)CCC(NC[C@H]1CC[C@H](CNS(=O)(=O)c3ccccc3)CC1)C2Cc1ccc(C(F)(F)F)cc1 (stereo partly shown) = 93
• COc1ccc2c(c1)CCC(NC[C@H]1CC[C@H](CNS(=O)(=O)c3ccc([N+](=O)[O-])cc3)CC1)C2Cc1ccccc1 (stereo partly shown) = 93
• O=S(=O)(NC[C@H]1CC[C@H](CNC2CCc3cc(O)c(O)cc3C2Cc2ccccc2)CC1)c1ccccc1 (relative stereo) = 101
• COc1ccc2c(c1)C(Cc1ccccc1)C(NC[C@H]1CC[C@H](CNS(=O)(=O)c3ccccc3)CC1)CC2 (stereo partly shown) = 93
• O=S(=O)(NC[C@H]1CC[C@H](CNC2CCc3c(Cl)cccc3C2Cc2ccccc2)CC1)c1ccccc1 (relative stereo) = 98
• COc1ccc2c(c1)CCC(NC[C@H]1CC[C@H](CNS(=O)(=O)c3cccc([N+](=O)[O-])c3)CC1)C2Cc1ccccc1 (stereo partly shown) = 95
• O=S(=O)(NC[C@H]1CC[C@H](CNC2CCc3cc(F)ccc3C2Cc2ccccc2)CC1)c1ccc(Cl)c(Cl)c1 (stereo partly shown) = 92
• COc1ccc2c(c1)CC[C@H](NC[C@H]1CC[C@H](CNS(=O)(=O)c3ccccc3[N+](=O)[O-])CC1)[C@@H]2Cc1ccccc1 (relative stereo) = 94
• COc1ccc2c(c1)CCC(NC[C@H]1CC[C@H](CNS(=O)(=O)c3ccccc3F)CC1)C2Cc1ccccc1 (relative stereo) = 98
• COc1ccc2c(c1)CCC(NC[C@H]1CC[C@H](CNS(=O)(=O)c3ccccc3)CC1)C2Cc1cccc(C(F)(F)F)c1 (stereo partly shown) = 99
• O=S(=O)(NC[C@H]1CC[C@H](CNC2CCc3cccc(Cl)c3C2Cc2ccccc2)CC1)c1ccccc1 (relative stereo) = 104
• COc1ccc2c(c1)CCC(NC[C@H]1CC[C@H](CNS(=O)(=O)c3ccccc3C(F)(F)F)CC1)C2Cc1ccccc1 (stereo partly shown) = 0
• O=[N+]([O-])c1ccccc1S(=O)(=O)NC[C@H]1CC[C@H](CNC2CCc3cc(F)ccc3C2Cc2ccccc2)CC1 (relative stereo) = 106
• O=S(=O)(NC1CCC(CNC2CCc3ccccc3C2Cc2cccnc2)CC1)c1ccccc1 (stereo not shown) = 95
• COc1ccc2c(c1)CC[C@H](NC[C@H]1CC[C@H](CNS(=O)(=O)c3cccc4ccccc34)CC1)[C@@H]2Cc1ccccc1 (relative stereo) = 95
• COc1ccc2c(c1)CCC(NC[C@H]1CC[C@H](CNS(=O)(=O)c3ccccc3)CC1)C2Cc1ccccc1OC (relative stereo) = 74
• COc1ccc2c(c1)CC[C@H](NCCCCCCCNS(=O)(=O)c1ccc3ccccc3c1)[C@@H]2Cc1ccccc1 (relative stereo) = 79
